- target.entity: ACAD11 (Homo sapiens, UniProt Q709F0)
- Construct: endogenous in cells
- Sequence (Q709F0 whole entry): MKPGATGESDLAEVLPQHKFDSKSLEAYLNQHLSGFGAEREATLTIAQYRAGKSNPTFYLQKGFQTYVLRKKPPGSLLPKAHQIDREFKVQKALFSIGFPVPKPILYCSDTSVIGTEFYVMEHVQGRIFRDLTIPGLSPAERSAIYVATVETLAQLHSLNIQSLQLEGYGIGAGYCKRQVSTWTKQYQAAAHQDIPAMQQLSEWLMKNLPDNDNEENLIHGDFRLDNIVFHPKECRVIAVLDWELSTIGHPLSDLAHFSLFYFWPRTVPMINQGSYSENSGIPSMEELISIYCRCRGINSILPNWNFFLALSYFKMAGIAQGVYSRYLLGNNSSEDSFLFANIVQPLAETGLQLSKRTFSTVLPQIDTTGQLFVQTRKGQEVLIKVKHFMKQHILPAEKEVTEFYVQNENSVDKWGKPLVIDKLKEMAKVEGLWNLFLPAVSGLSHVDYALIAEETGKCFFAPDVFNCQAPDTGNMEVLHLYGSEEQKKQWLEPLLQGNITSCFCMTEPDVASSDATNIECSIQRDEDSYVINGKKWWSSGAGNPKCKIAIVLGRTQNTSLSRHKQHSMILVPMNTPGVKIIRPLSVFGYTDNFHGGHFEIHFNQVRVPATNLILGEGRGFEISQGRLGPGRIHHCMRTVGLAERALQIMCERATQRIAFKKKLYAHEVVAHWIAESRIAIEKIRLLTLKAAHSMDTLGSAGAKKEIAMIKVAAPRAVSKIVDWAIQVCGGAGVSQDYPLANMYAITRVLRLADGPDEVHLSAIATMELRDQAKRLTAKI
- assay.overview: Kinobeads two-dose competition binding: ACAD11
- assay.context: sheet CATDS matrix 2; Gene Name ACAD11
Documented CATDS across a set of compounds
measure.name: CATDS

compound="CC1=C(C(=O)Nc2ccc3[nH]ncc3c2)C(c2ccc(F)cc2)NC(=O)N1 (stereo not shown) [GSK180736A]" result_value=0
compound="NCCC(NC(=O)c1cc(Br)c(-c2ccnc3[nH]ccc23)s1)c1ccccc1 (stereo not shown) [GSK1307810A]" result_value=0
compound="O=c1cc(N2CCOCC2)nc2n(Cc3cccc(F)c3)ccn12 [GSK2297430A]" result_value=0
compound="CC(C)c1nc(-c2cccc(NS(=O)(=O)c3ccccc3)c2)c(-c2ccnc(Nc3ccc4c(c3)CN(C)CC4)n2)s1 [GSK1649598A]" result_value=0

* * *

Quick reference for CATDS among some molecules
- target.entity: AAK1 (Homo sapiens)
- Construct: to maximize the representation of endogenous proteins; endogenous in cells
- Sequence (Q2M2I8 whole entry): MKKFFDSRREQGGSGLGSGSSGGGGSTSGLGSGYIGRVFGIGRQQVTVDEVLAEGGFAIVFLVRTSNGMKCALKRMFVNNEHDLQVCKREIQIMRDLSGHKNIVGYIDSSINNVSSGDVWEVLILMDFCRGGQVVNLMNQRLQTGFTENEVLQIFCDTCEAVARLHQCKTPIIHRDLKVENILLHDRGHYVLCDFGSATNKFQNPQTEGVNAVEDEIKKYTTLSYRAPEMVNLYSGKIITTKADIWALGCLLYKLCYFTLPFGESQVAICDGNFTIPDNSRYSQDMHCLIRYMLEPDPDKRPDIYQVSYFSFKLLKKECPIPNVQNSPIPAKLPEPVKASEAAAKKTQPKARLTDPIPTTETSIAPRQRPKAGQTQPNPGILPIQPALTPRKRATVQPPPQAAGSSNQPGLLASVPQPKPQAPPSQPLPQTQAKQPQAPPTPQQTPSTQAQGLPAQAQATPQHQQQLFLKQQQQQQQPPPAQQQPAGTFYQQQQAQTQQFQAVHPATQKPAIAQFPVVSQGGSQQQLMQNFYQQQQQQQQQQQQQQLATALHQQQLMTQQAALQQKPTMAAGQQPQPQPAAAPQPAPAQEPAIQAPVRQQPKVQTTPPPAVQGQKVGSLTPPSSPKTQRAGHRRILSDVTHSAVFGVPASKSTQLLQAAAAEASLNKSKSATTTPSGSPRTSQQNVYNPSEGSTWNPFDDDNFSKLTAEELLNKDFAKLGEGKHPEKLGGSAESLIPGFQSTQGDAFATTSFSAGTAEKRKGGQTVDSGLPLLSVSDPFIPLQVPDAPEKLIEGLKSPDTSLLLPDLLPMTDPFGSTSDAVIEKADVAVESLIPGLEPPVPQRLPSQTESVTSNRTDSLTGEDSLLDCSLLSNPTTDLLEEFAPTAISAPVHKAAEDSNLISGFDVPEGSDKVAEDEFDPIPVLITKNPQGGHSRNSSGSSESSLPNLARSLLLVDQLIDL
- assay.overview: Kinobeads two-dose competition binding: AAK1;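 further: kinobeads competition pulldown from cell lysate, compound preincubated 45 min at 4 °C, bead-bound protein measured by label-free mass spectrometry against DMSO vehicle control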
- assay.context: sheet CATDS matrix 2; Gene Name AAK1
measure.name: CATDS

molecule="Cc1cccc(Nc2nc(NCCN)ncc2C(N)=O)c1 [GSK1292139B]" target_entity="AAK1 (Homo sapiens)" measure_name=CATDS result_value=0.21
molecule="CCn1c(-c2nonc2N)nc2c(C#CC(C)(C)O)nc(O[C@@H](CN)c3ccccc3)cc21 [GSK1007102B]" target_entity="AAK1 (Homo sapiens)" measure_name=CATDS result_value=0.04112
molecule="Cn1cnc2c(F)c(Nc3ccc(Br)cc3F)c(C(=O)NOCCO)cc21 [Binimetinib, reference compound]" target_entity="AAK1 (Homo sapiens)" measure_name=CATDS result_value=0
molecule="Cn1cc(C2=C(c3cn(C4CCN(Cc5ccccn5)CC4)c4ccccc34)C(=O)NC2=O)c2ccccc21 [Enzastaurin, reference compound]" target_entity="AAK1 (Homo sapiens)" measure_name=CATDS result_value=0
molecule="Cc1cc(N2CCC(NS(=O)(=O)c3ccc(F)cc3)CC2)nc(Nc2cccc(C#N)c2)n1 [GSK1653537A]" target_entity="AAK1 (Homo sapiens)" measure_name=CATDS result_value=0
molecule="O=C(Nc1c[nH]nc1-c1nc2ccc(CN3CCOCC3)cc2[nH]1)NC1CC1 [AT-9283, reference compound]" target_entity="AAK1 (Homo sapiens)" measure_name=CATDS result_value=0.0448
molecule="CCCN1CCCC(c2ccc(Nc3nc(Nc4cc(F)ccc4C(N)=O)c4cc[nH]c4n3)c(OC)c2)C1 (stereo not drawn) [GSK1173862A]" target_entity="AAK1 (Homo sapiens)" measure_name=CATDS result_value=0
molecule=CCCS(=O)(=O)Nc1ccc(F)c(-n2cc(-c3cncc(OC)c3)nn2)c1F target_entity="AAK1 (Homo sapiens)" measure_name=CATDS result_value=0
molecule="Cc1cc(Nc2ncc(Cl)c(Nc3ccccc3S(=O)(=O)C(C)C)n2)c(OC(C)C)cc1C1CCNCC1 [Ceritinib, reference compound]" target_entity="AAK1 (Homo sapiens)" measure_name=CATDS result_value=0
molecule=CC(C)N1CCN(Cc2cnc(-c3cc(-c4cccc5[nH]ccc45)cc4[nH]ncc34)o2)CC1 target_entity="AAK1 (Homo sapiens)" measure_name=CATDS result_value=0
molecule="O=c1cc(N2CCOCC2)nc2n(Cc3cccc(C(F)(F)F)c3)ccn12 [GSK2297543A]" target_entity="AAK1 (Homo sapiens)" measure_name=CATDS result_value=0
molecule="COc1ccc(Nc2nccc(NCCNC(=O)Nc3cc(C)ccc3C)n2)cc1 [GSK1379899A]" target_entity="AAK1 (Homo sapiens)" measure_name=CATDS result_value=0
molecule=CC(C)N1CC(=O)N(C)c2cnc(Nc3cccc(S(=O)(=O)CCN4CCOCC4)c3)nc21 target_entity="AAK1 (Homo sapiens)" measure_name=CATDS result_value=0.07467
molecule="COc1cc2ncnc(Nc3cccc(Br)c3)c2cc1OC [GI230329A]" target_entity="AAK1 (Homo sapiens)" measure_name=CATDS result_value=0
molecule="O=c1cc(N2CCOCC2)nc2n(Cc3cccc(Cl)c3)ccn12 [GSK2296823A]" target_entity="AAK1 (Homo sapiens)" measure_name=CATDS result_value=0
molecule="CN1CCc2ccc(Nc3nccc(-c4c(-c5cccc(NC(=O)c6c(F)cccc6F)c5)nc5ccccn45)n3)cc2C1 [GSK1010829B]" target_entity="AAK1 (Homo sapiens)" measure_name=CATDS result_value=0
molecule="CNc1nccc(-c2ccc3c(N)n[nH]c3c2)n1 [GSK2206003A]" target_entity="AAK1 (Homo sapiens)" measure_name=CATDS result_value=0.118
molecule="Cc1cn2c(=O)cc(N3CCOCC3)nc2n1Cc1cccc(Cl)c1Cl [GSK2334006A]" target_entity="AAK1 (Homo sapiens)" measure_name=CATDS result_value=0
molecule="COc1cc(Nc2nccc(N3CCC(NC(=O)c4cccc(C#N)c4)C3)n2)cc(OC)c1OC (stereo not drawn) [GSK1379751A]" target_entity="AAK1 (Homo sapiens)" measure_name=CATDS result_value=0.2095
molecule="Cc1nc(Nc2ncc(C(=O)Nc3c(C)cccc3Cl)s2)cc(N2CCN(CCO)CC2)n1 [Dasatinib, reference compound]" target_entity="AAK1 (Homo sapiens)" measure_name=CATDS result_value=0
molecule="CN(C)S(=O)(=O)c1cc(-c2ccc3nccc(-c4cccc(S(N)(=O)=O)c4)c3c2)cnc1N [GSK1669921A]" target_entity="AAK1 (Homo sapiens)" measure_name=CATDS result_value=0
molecule="Cc1ccccc1Cn1ccn2c(=O)cc(N3CCOCC3)nc12 [GSK2269905A]" target_entity="AAK1 (Homo sapiens)" measure_name=CATDS result_value=0
molecule="O=c1[nH]ccc2nc(N[C@@H]3CCNC3)nc(Nc3ccc4c(c3)S(=O)(=O)CC4)c12 [GSK2181306A]" target_entity="AAK1 (Homo sapiens)" measure_name=CATDS result_value=0.01021
molecule="CNC(=O)c1ncccc1Nc1nc(Nc2cc3c(cc2OC)CCCN3C(=O)CN(C)C)nc2[nH]ccc12 [GSK2220400A]" target_entity="AAK1 (Homo sapiens)" measure_name=CATDS result_value=0
molecule="COc1ccc2ncnc(Nc3ccc(OCc4ccccc4)cc3)c2c1 [GI261520A]" target_entity="AAK1 (Homo sapiens)" measure_name=CATDS result_value=0
molecule="COc1ccc(Nc2nccc(N3CCC(NC(=O)c4cccc(C#N)c4)C3)n2)cc1 (stereo not drawn) [GSK1379730A]" target_entity="AAK1 (Homo sapiens)" measure_name=CATDS result_value=0
molecule="Fc1ccc(-c2nc3n(c2-c2ccncc2)CCS3)cc1 [GI98581X]" target_entity="AAK1 (Homo sapiens)" measure_name=CATDS result_value=0
molecule="Cc1cc(-c2ccnc(Nc3cccc(C#N)c3)n2)cc(C)c1O [GSK1440913A]" target_entity="AAK1 (Homo sapiens)" measure_name=CATDS result_value=0.2295
molecule="COc1ccc(Nc2nccc(N3CCC(NC(=O)Nc4ccc5c(c4)OCO5)C3)n2)cc1 (stereo not drawn) [GSK1379745A]" target_entity="AAK1 (Homo sapiens)" measure_name=CATDS result_value=0
molecule="Cc1cccc(-c2cc(Nc3ccncc3)c3ccccc3n2)n1 [GSK223675A]" target_entity="AAK1 (Homo sapiens)" measure_name=CATDS result_value=0
molecule="NCCC(NC(=O)c1cc(Br)c(-c2ccnc3[nH]ccc23)s1)c1ccccc1 (stereo not drawn) [GSK1307810A]" target_entity="AAK1 (Homo sapiens)" measure_name=CATDS result_value=0
molecule="COc1cc2nccc(Nc3ccc(Oc4ccccc4)cc3)c2cc1OC [GI261656A]" target_entity="AAK1 (Homo sapiens)" measure_name=CATDS result_value=0
molecule="COc1cc2ncn(-c3cc(OCC4CCCCC4)c(C(N)=O)s3)c2cc1OC [GSK204559A]" target_entity="AAK1 (Homo sapiens)" measure_name=CATDS result_value=0
